Target: S. aureus Uridine-diphosphate-N-acetylmuramoyl-L-alanine: D-glutamate liease, MurD (Staphylococcus aureus)
Sequence (Q2FZ92 whole entry): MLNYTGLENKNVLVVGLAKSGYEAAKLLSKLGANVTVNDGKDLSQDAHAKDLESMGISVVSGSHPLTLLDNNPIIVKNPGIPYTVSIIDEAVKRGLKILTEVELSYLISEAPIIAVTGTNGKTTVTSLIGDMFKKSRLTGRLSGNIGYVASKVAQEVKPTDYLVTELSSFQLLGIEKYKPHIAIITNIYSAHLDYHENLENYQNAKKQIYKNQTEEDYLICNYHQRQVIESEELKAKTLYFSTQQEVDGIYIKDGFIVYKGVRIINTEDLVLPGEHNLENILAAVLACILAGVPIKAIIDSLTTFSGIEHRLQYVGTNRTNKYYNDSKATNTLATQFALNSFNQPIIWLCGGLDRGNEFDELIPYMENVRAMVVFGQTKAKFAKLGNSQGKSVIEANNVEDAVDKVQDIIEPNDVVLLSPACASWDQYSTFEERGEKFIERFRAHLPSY
Observable: pIC50
Conceptually, pIC50 converts a concentration in mol/L into minus its log10.

Recorded pIC50, per entry:
COc1cc(/C=C2\OC(=O)C(c3cccc(Cl)c3)=C2O)ccc1-c1ccccc1Cl [Example 18] | 4.39
O=C1O/C(=C\c2cccc3ccccc23)C(O)=C1c1cc(Cl)cc(Cl)c1 [Example 70] | 4.63
O=C1O/C(=C\c2ccc(-c3ccccc3)cc2)C(O)=C1c1cc(Cl)cc(Cl)c1 [Example 68] | 4.57
O=C1O/C(=C\c2cccc3ccccc23)C(O)=C1c1ccc(C(F)(F)F)cc1 [Example 71] | 4.20

What value of pIC50 has been recorded for this entry: O=C1O/C(=C\c2cccc(-c3ccc(Cl)c(Cl)c3)c2)C(O)=C1c1ccc(Cl)c(Cl)c1 [Example 135]
4.90

What value of pIC50 has been recorded for this entry: Cc1cc(/C=C2\OC(=O)C(c3cccc(Cl)c3)=C2O)ccc1-c1ccccc1C(F)(F)F [Example 26]
4.71

What value of pIC50 has been recorded for this entry: O=C1O/C(=C\c2ccc(-c3ccccc3C(F)(F)F)cc2)C(O)=C1c1ccccc1C(F)(F)F [Example 61]
4.40

What value of pIC50 has been recorded for this entry: O=C1O/C(=C\c2ccc(N3CCOCC3)c3ccccc23)C(O)=C1c1cccc(Cl)c1 [Example 37]
4.36

What value of pIC50 has been recorded for this entry: O=C1O/C(=C\c2cccc3ccccc23)C(O)=C1c1ccc(Cl)cc1 [Example 4]
4.16

What value of pIC50 has been recorded for this entry: COc1ccccc1-c1ccc(/C=C2\OC(=O)C(c3ccc(Cl)c(Cl)c3)=C2O)cc1OC [Example 20]
4.39

What value of pIC50 has been recorded for this entry: Cc1cc(/C=C2\OC(=O)C(c3cc(Cl)cc(Cl)c3)=C2O)ccc1-c1ccccc1C(F)(F)F [Example 27]
4.31

What value of pIC50 has been recorded for this entry: O=C1O/C(=C\c2ccc(N3CCOCC3)c3ccccc23)C(O)=C1c1cc(Cl)cc(Cl)c1 [Example 38]
4.89

What value of pIC50 has been recorded for this entry: COc1ccccc1-c1ccc(/C=C2\OC(=O)C(c3cc(Cl)cc(Cl)c3)=C2O)cc1OC [Example 19]
4.44

What value of pIC50 has been recorded for this entry: Cc1ccc(C2=C(O)/C(=C/c3ccc(-c4ccc(C)cc4)cc3)OC2=O)cc1 [Example 57]
4.29

What value of pIC50 has been recorded for this entry: CN(C)c1ccc(/C=C2\OC(=O)C(c3cc(Cl)cc(Cl)c3)=C2O)c2ccccc12 [Example 79]
4.48

----------
System: enterococci
Experiment: Minimum inhibitory concentration, microdilution broth method, enterococci
Type: cell-based
Conditions: Enterococcus faecalis, E. faecalis GC 2242; Mueller-Hinton broth, 18-22 hours at 35° C.; read-out: MIC E. faecalis GC 2242
Note to self: use true (1) only for MIC readings below 4 µg/mL; a reading exactly at 4 µg/mL still gets false (0).

The following molecules have reported results that may help.
Cc1ccc(/C=C2\OC(=O)C(c3cccc(C(F)(F)F)c3)=C2O)s1 | false (0)
CN(C)c1ccc(/C=C2\OC(=O)C(c3ccc(C(F)(F)F)cc3)=C2O)c2ccccc12 | false (0)
CCOc1ccc(-c2ccc(C3=C(O)/C(=C/c4ccc(Cl)c(C(F)(F)F)c4)OC3=O)cc2)cc1 | false (0)
COc1ccc(C2=C(O)/C(=C/c3ccc4ccccc4c3)OC2=O)cc1 | false (0)
O=C1O/C(=C\c2cccc(C(F)(F)F)c2Cl)C(O)=C1c1ccc(-c2ccccc2)cc1 | true (1)
CCOc1ccc(-c2ccc(C3=C(O)/C(=C/c4cc(C(F)(F)F)ccc4Cl)OC3=O)cc2)cc1 | true (1)
O=C1O/C(=C\c2cccc(C(F)(F)F)c2)C(O)=C1c1cccc2ccccc12 | false (0)
COc1ccc(C2=C(O)/C(=C/c3ccc(-c4ccccc4)cc3)OC2=O)cc1 | false (0)

I wonder whether O=C1O/C(=C\c2ccc(-c3cc(Cl)cc(Cl)c3)cc2)C(O)=C1c1cc(Cl)cc(Cl)c1 has MIC below 4 µg/mL. Can you tell?
true (1)

I wonder whether Cc1ccccc1-c1ccc(/C=C2\OC(=O)C(c3cc(Cl)cc(Cl)c3)=C2O)cc1C has MIC below 4 µg/mL. Can you tell?
true (1)

----------
Molecular target: S. aureus Uridine-diphosphate-N-acetvimuramoyl: L-alanine lipase, MurC (Staphylococcus aureus)
Sequence (Q2FXJ0 whole entry): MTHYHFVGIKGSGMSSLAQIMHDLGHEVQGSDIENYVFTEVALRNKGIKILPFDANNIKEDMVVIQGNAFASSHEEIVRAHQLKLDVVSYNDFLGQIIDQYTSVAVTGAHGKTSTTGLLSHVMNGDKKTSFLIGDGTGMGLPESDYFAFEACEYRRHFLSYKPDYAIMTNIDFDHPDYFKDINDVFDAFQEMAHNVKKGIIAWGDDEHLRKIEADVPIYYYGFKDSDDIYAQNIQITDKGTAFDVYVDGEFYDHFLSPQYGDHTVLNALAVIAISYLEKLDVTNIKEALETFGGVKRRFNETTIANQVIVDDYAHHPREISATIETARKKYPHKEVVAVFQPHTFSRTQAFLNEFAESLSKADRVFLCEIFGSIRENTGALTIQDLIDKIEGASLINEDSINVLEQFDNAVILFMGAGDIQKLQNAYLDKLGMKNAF
Assay: biochemical
Details: (S) S. aureus enzyme; read-out: MurC IC50 (converted)
Catalogue of molecules with associated IC50
Reply numerically in µM, unit not repeated.

COc1cc(/C=C2\OC(=O)C(c3cccc(Cl)c3)=C2O)ccc1-c1ccccc1C(F)(F)F | 25.4
O=C1O/C(=C\c2ccc(Cl)cc2)C(O)=C1c1ccc2ccccc2c1 | 60.2

Read the next record carefully.
What value of IC50 has been recorded for this entry: COC(=O)c1ccc(C2=C(O)/C(=C/c3cccc4ccccc34)OC2=O)cc1
48.3

----------
Test system: enterococci
Assay: Minimum inhibitory concentration, microdilution broth method, enterococci
Format: cell-based
Settings: Enterococcus faecalis, E. faecalis GC 4555; Mueller-Hinton broth, 18-22 hours at 35° C.; read-out: MIC E. faecalis GC 4555
Observable: MIC

O=C1O/C(=C\c2cccc3ccccc23)C(O)=C1c1ccc(C(F)(F)F)cc1 | 8 µg/mL

What value of MIC has been recorded for this entry: O=C1O/C(=C\c2cccc(C(F)(F)F)c2Cl)C(O)=C1c1ccc(-c2ccccc2)c(F)c1
2 µg/mL

What value of MIC has been recorded for this entry: O=C1O/C(=C\c2ccc(-c3ccccc3F)cc2)C(O)=C1c1ccccc1F
> 128 µg/mL

What value of MIC has been recorded for this entry: O=C1O/C(=C\c2ccccc2-c2ccc(Cl)c(Cl)c2)C(O)=C1c1ccc(Cl)c(Cl)c1
1 µg/mL

What value of MIC has been recorded for this entry: O=C1O/C(=C\c2ccc(-c3ccccc3)cc2)C(O)=C1c1csc2ccccc12
32 µg/mL

What value of MIC has been recorded for this entry: Cc1ccccc1-c1ccc(/C=C2\OC(=O)C(c3cc(Cl)cc(Cl)c3)=C2O)cc1C
2 µg/mL

----------
Catalogue of compounds with associated Rating
Test system: C. elegans
Experiment: Efficacy against nematodes (C. elegans motility rating)
Set-up: key: 0: no effect; 7: reduced movement in 24 h; 8: dead in 24 h; 9: dead in 4 h
Conditions: dose 100 ppm, observations at 4 h and 24 h postimmersion

Recorded Rating, per entry:
O=C1O/C(=C\c2ccc(F)c(F)c2)C(O)=C1c1ccc(Cl)s1 | 9
O=C1OC(=Cc2ccc(N3CCOCC3)nc2)C(O)=C1c1ccc(OC(F)(F)F)cc1 (mixture of isomers) | 0
COC1=C(c2ccc(Cl)cc2)C(=O)OC1=Cc1ccc(C#N)cc1 (mixture of isomers) [R=CH3; R1=4-Cl—C6H4**; R2=4-CN—C6H4] | 0
O=C1OC(=Cc2ccc(SC(F)(F)F)cc2)C(O)=C1c1ccc(Cl)cc1 (mixture of isomers) [R=H; R1=4-Cl—C6H4**; R2=4-SCF3—C6H4] | 9
O=C1OC(=Cc2ccc(-c3ccc(Cl)s3)cc2)C(O)=C1c1ccc(OC(F)(F)F)cc1 (mixture of isomers) | 9

What value of Rating has been recorded for this entry: N#Cc1ccc(-c2ccc(C=C3OC(=O)C(c4ccc(C(F)(F)F)cc4)=C3O)cc2)cc1 (mixture of isomers)
9

What value of Rating has been recorded for this entry: N#Cc1ccc(C=C2OC(=O)C(c3cccc(C(F)(F)F)c3)=C2O)cc1 (mixture of isomers) [R=H; R1=3-CF3—C6H4**; R2=4-CN—C6H4]
9

----------
List of pIC50 tested on UniProtKB P14900.
Sequence (P14900 whole entry): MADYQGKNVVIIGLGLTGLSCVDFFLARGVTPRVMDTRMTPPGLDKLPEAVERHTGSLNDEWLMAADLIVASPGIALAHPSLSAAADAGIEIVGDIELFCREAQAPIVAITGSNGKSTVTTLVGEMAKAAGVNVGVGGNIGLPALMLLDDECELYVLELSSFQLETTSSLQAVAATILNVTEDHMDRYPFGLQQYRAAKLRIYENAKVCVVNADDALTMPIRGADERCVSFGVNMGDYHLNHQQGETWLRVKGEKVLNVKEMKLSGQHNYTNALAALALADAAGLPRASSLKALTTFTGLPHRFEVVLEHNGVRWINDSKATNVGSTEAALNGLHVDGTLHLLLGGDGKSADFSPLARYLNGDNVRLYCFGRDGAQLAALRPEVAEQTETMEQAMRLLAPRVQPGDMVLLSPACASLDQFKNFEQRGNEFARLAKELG
Conceptually, pIC50 converts a concentration in mol/L into minus its log10.

O=C1O/C(=C\c2ccc(-c3ccccc3)cc2)C(O)=C1c1cccc(Cl)c1 | 4.30
CC(C)(C)c1ccc(-c2ccc(C3=C(O)/C(=C/c4cccc(C(F)(F)F)c4)OC3=O)cc2)cc1 | 4.76
O=Cc1cccc(C2=C(O)/C(=C/c3cccc4ccccc34)OC2=O)c1 | 4.17
CCOc1ccc(-c2ccc(C3=C(O)/C(=C/c4cc(C(F)(F)F)ccc4Cl)OC3=O)cc2)cc1 | 4.84
CC(C)(C)c1ccc(-c2ccc(C3=C(O)/C(=C/c4cc(C(F)(F)F)ccc4F)OC3=O)cc2)cc1 | 4.48

Which pIC50 is reported with UniProtKB P14900 for this entry: O=C1O/C(=C\c2ccc(-c3ccccc3)cc2)C(O)=C1c1ccc(Cl)cc1 ?
4.87

Which pIC50 is reported with UniProtKB P14900 for this entry: O=C1O/C(=C\c2ccc(-c3ccc(Cl)cc3)cc2)C(O)=C1c1ccc(Cl)cc1 ?
4.83

Which pIC50 is reported with UniProtKB P14900 for this entry: O=C1O/C(=C\c2cccc(-c3cc(Cl)cc(Cl)c3)c2)C(O)=C1c1cc(Cl)cc(Cl)c1 ?
4.90
